assay.explanation: Cytotoxicity, alamarBlue, murine macrophages
Type: cell-based
condition.details: mouse, J774A.1 murine macrophage cell line, J774A.1 murine macrophages, mean ± SD
experimental.readout: CC50 at 24 h (µM)
Give just the number in µM; leave the unit off.

{"molecule": "N#C/C=C\\P(=O)(c1ccccc1)c1ccccc1 [Compound Q20, (Z)-3-(diphenylphosphoryl)acrylonitrile]", "CC50 at 24 h (µM)": 50.6}
{"molecule": "COC(=O)/C=C\\C#N [Compound Q2, (Z)-Methyl 3-cyanoacrylate]", "CC50 at 24 h (µM)": 112}

# context switch: different molecule, same CC50 at 24 h
// lookup CC50 at 24 h for CCCCCC(=O)/C=C/C#N [Compound Q10, (E)-4-Oxonon-2-enenitrile]
10.1
